System: Wild Oats
Experiment: Test F over-the-top soil/foliage treatment
Format: in vivo, Avena fatua
Set-up: scale not given here
Conditions: soil/foliage spray; 0.06 kg/ha; ~14 days
Provide the recorded Wild Oats response rating for the entries that follow.

Value of measured Wild Oats response rating for the entry Cc1cc(C)nc(NC(=O)NS(=O)(=O)c2ccccc2OS(C)(=O)=O)n1 [Compound 3, methanesulfonate] : 10C

Notebook: CCCS(=O)(=O)Oc1ccccc1S(=O)(=O)NC(=O)Nc1nc(C)nc(OC)n1 , Wild Oats response rating read as 0

Quick note, Wild Oats response rating for COc1cc(C)nc(NC(=O)NS(=O)(=O)c2ccccc2OS(C)(=O)=O)n1 [Compound 2, methanesulfonate] landed at 10C

COc1cc(OC)nc(NC(=O)NS(=O)(=O)c2ccccc2OS(C)(=O)=O)n1 [Compound 1, methanesulfonate] yielded Wild Oats response rating of 6G
